- Assay Target: human adrenergic receptor α1B (Homo sapiens, UniProt P35368)
- Sequence (P35368 whole entry): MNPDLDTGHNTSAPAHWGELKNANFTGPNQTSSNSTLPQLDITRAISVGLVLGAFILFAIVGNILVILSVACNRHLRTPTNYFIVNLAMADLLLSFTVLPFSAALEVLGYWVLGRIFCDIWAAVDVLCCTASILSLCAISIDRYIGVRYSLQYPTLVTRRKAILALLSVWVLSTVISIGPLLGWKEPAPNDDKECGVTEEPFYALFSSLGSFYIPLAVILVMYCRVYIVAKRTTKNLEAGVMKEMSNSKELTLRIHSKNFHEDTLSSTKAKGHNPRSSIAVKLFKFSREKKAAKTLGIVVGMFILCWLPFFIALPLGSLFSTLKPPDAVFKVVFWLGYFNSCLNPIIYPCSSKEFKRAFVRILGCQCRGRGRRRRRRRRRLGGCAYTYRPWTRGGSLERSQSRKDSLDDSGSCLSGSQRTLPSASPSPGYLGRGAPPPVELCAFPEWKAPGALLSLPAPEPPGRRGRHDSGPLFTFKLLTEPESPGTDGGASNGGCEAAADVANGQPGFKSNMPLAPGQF
- Experimental Protocol: Intrinsic activity, aequorin luminescence functional assay at α1B-AR
- Type: cell-based
- Details: selectivity for α1B-AR (IC50(α1A-AR)/IC50(α1B-AR))
Known Selectivity Ratio α1A/α1B of a selection of molecules
Test Readout: Selectivity Ratio α1A/α1B

[[record]]
molecule = "COc1cccc(N2CCN(CC(O)CN3C(=O)N(Cc4ccc(Cl)cc4Cl)C(=O)C3(C)C)CC2)c1.Cl (stereo not shown)"
number = 0.89

[[record]]
molecule = "CC1(C)C(=O)N(Cc2ccc(Cl)cc2Cl)C(=O)N1CC(O)CN1CCN(c2ccccc2C#N)CC1.Cl (stereo not shown)"
number = 0.45

[[record]]
molecule = "CC1(C)C(=O)N(Cc2ccc(Cl)cc2Cl)C(=O)N1CC(O)CN1CCN(c2ccc(F)cc2)CC1 (stereo not shown)"
number = 4.79

[[record]]
molecule = "CC1(C)C(=O)N(Cc2ccc(Cl)cc2Cl)C(=O)N1CCCN1CCN(c2cccc(Cl)c2Cl)CC1.Cl"
number = 1.51

[[record]]
molecule = "COc1ccccc1N1CCN(CCCN2C(=O)N(Cc3ccc(Cl)cc3Cl)C(=O)C2(C)C)CC1.Cl"
number = 8.46

[[record]]
molecule = "CC1(C)C(=O)N(Cc2ccc(Cl)cc2Cl)C(=O)N1CC(O)CN1CCN(c2ccccc2F)CC1 (stereo not shown)"
number = 2.92

[[record]]
molecule = "CC1(C)C(=O)N(Cc2ccc(Cl)cc2Cl)C(=O)N1CC(O)CN1CCN(c2ccccc2)CC1.Cl (stereo not shown)"
number = 6.53


###

Known melting point of a selection of compounds
Test Readout: melting point

[[record]]
compound = "CC1(C)C(=O)N(Cc2ccc(Cl)cc2Cl)C(=O)N1CC(O)CN1CCN(c2ccc(Cl)c(Cl)c2)CC1.Cl (stereo not shown)"
result = "223 to 225 °C"

[[record]]
compound = "CC1(C)C(=O)N(Cc2ccc(Cl)cc2Cl)C(=O)N1CC(O)CN1CCN(c2ccccc2)CC1.Cl (stereo not shown)"
result = "196 to 198 °C"

[[record]]
compound = "COc1ccccc1N1CCN(CC(O)CN2C(=O)N(Cc3ccc(Cl)cc3Cl)C(=O)C2(C)C)CC1.Cl (stereo not shown)"
result = "144 to 146 °C"

[[record]]
compound = "COc1cccc(N2CCN(CC(O)CN3C(=O)N(Cc4ccc(Cl)cc4Cl)C(=O)C3(C)C)CC2)c1.Cl (stereo not shown)"
result = "177 to 179 °C"

[[record]]
compound = "CC1(C)C(=O)N(Cc2ccc(Cl)cc2Cl)C(=O)N1CC(O)CN1CCN(c2ccccc2C#N)CC1.Cl (stereo not shown)"
result = "147 to 149 °C"

[[record]]
compound = "COc1ccccc1N1CCN(CCCN2C(=O)N(Cc3ccc(Cl)cc3Cl)C(=O)C2(C)C)CC1.Cl"
result = "201 to 203 °C"

[[record]]
compound = "COc1ccccc1N1CCN(CCCCCCN2C(=O)N(Cc3ccc(Cl)cc3Cl)C(=O)C2(C)C)CC1.Cl"
result = "205 to 207 °C"


###

Known Diastolic blood pressure of a selection of compounds
- Tested on: arterial blood pressure of normotensive Wistar rats
- Experimental Protocol: Influence on blood pressure in normotensive anesthetized rats after i.v. administration
- Format: in vivo, rat
- Details: 2.0 mg/kg i.v., 0 min (initial, before administration), mean, n = 6
Test Readout: Diastolic blood pressure

[[record]]
compound = "CC1(C)C(=O)N(Cc2ccc(Cl)cc2Cl)C(=O)N1CCCCCN1CCN(c2ccccc2)CC1.Cl [Compound 3]"
number = 93.7

[[record]]
compound = "CC1(C)C(=O)N(Cc2ccc(Cl)cc2Cl)C(=O)N1CC(O)CN1CCN(c2ccccc2F)CC1 (centres unmarked) [Compound 7]"
number = 103.2

[[record]]
compound = "CC1(C)C(=O)N(Cc2ccc(Cl)cc2Cl)C(=O)N1CC(O)CN1CCN(c2ccccc2)CC1.Cl (centres unmarked) [Compound 6]"
number = 98.2

[[record]]
compound = "COc1cccc(N2CCN(CC(O)CN3C(=O)N(Cc4ccc(Cl)cc4Cl)C(=O)C3(C)C)CC2)c1.Cl (centres unmarked) [Compound 14]"
number = 100.8

[[record]]
compound = "Cc1ccc(N2CCN(CC(O)CN3C(=O)N(Cc4ccc(Cl)cc4Cl)C(=O)C3(C)C)CC2)cc1C.Cl (centres unmarked) [Compound 12]"
number = 104.2

[[record]]
compound = "COc1ccccc1N1CCN(CC(O)CN2C(=O)N(Cc3ccc(Cl)cc3Cl)C(=O)C2(C)C)CC1.Cl (centres unmarked) [Compound 13]"
number = 98.0

[[record]]
compound = "CC1(C)C(=O)N(Cc2ccc(Cl)cc2Cl)C(=O)N1CC(O)CN1CCN(c2ccccc2C#N)CC1.Cl (centres unmarked) [Compound 11]"
number = 91.7

[[record]]
compound = "COc1ccccc1N1CCN(CCCN2C(=O)N(Cc3ccc(Cl)cc3Cl)C(=O)C2(C)C)CC1.Cl [Compound 1]"
number = 101.0

[[record]]
compound = "CC1(C)C(=O)N(Cc2ccc(Cl)cc2Cl)C(=O)N1CC(O)CN1CCN(c2ccc(F)cc2F)CC1 (centres unmarked) [Compound 9]"
number = 100.3

[[record]]
compound = "CC1(C)C(=O)N(Cc2ccc(Cl)cc2Cl)C(=O)N1CCCN1CCN(c2cccc(Cl)c2Cl)CC1.Cl [Compound 2]"
number = 100.7

[[record]]
compound = "CC1(C)C(=O)N(Cc2ccc(Cl)cc2Cl)C(=O)N1CC(O)CN1CCN(c2ccc(F)cc2)CC1 (centres unmarked) [Compound 8]"
number = 96.7


###

- Assay Target: human adrenergic receptor α1B (Homo sapiens)
- Experimental Protocol: Intrinsic activity, aequorin luminescence functional assay at α1B-AR
- Type: cell-based
- Details: selectivity for α1B-AR (IC50(α1A-AR)/IC50(α1B-AR))
Known Selectivity Ratio α1A/α1B of a selection of molecules
Test Readout: Selectivity Ratio α1A/α1B

[[record]]
molecule = "COc1ccccc1N1CCN(CCCCCCN2C(=O)N(Cc3ccc(Cl)cc3Cl)C(=O)C2(C)C)CC1.Cl [Compound 5]"
test_readout = "Selectivity Ratio α1A/α1B"
result = 10.00

[[record]]
molecule = "CC1(C)C(=O)N(Cc2ccc(Cl)cc2Cl)C(=O)N1CCCCCN1CCN(c2ccccc2)CC1.Cl [Compound 3]"
test_readout = "Selectivity Ratio α1A/α1B"
result = 88.73

[[record]]
molecule = "COc1ccccc1N1CCN(CC(O)CN2C(=O)N(Cc3ccc(Cl)cc3Cl)C(=O)C2(C)C)CC1.Cl (centres unmarked) [Compound 13]"
test_readout = "Selectivity Ratio α1A/α1B"
result = 0.42

[[record]]
molecule = "CC1(C)C(=O)N(Cc2ccc(Cl)cc2Cl)C(=O)N1CC(O)CN1CCN(c2ccc(F)cc2F)CC1 (centres unmarked) [Compound 9]"
test_readout = "Selectivity Ratio α1A/α1B"
result = 1.10

[[record]]
molecule = "Cc1ccc(N2CCN(CC(O)CN3C(=O)N(Cc4ccc(Cl)cc4Cl)C(=O)C3(C)C)CC2)cc1C.Cl (centres unmarked) [Compound 12]"
test_readout = "Selectivity Ratio α1A/α1B"
result = 8.31


###

- System: arterial blood pressure of normotensive Wistar rats
- Experimental Protocol: Influence on blood pressure in normotensive anesthetized rats after i.v. administration
- Assay type: in vivo, rat
- Details: 2.0 mg/kg i.v., 0 min (initial, before administration), mean, n = 6
- Procedure: In the next step, the hypotensive activity of novel compounds 1–3, 5–9, and 11–14 was determined after i.v. administration to normotensive anesthetized rats. All results are shown in Supplementary Table S1. The normotensive rats were anesthetized with thiopental (75 mg/kg) by intraperitoneal injection (i.p.). […] Blood pressure was measured immediately before administration of the tested compounds or vehicle—time 0 min (initial blood pressure) and 60 min thereafter. […]
Test Readout: Systolic blood pressure

[[record]]
compound = "COc1ccccc1N1CCN(CC(O)CN2C(=O)N(Cc3ccc(Cl)cc3Cl)C(=O)C2(C)C)CC1.Cl (centres unmarked)"
number = 130.7

[[record]]
compound = "CC1(C)C(=O)N(Cc2ccc(Cl)cc2Cl)C(=O)N1CCCN1CCN(c2cccc(Cl)c2Cl)CC1.Cl"
number = 129.3

[[record]]
compound = "CC1(C)C(=O)N(Cc2ccc(Cl)cc2Cl)C(=O)N1CC(O)CN1CCN(c2ccc(F)cc2F)CC1 (centres unmarked)"
number = 135.2

[[record]]
compound = "CC1(C)C(=O)N(Cc2ccc(Cl)cc2Cl)C(=O)N1CC(O)CN1CCN(c2ccccc2)CC1.Cl (centres unmarked)"
number = 134.2

[[record]]
compound = "CC1(C)C(=O)N(Cc2ccc(Cl)cc2Cl)C(=O)N1CCCCCN1CCN(c2ccccc2)CC1.Cl"
number = 132.2

[[record]]
compound = "COc1cccc(N2CCN(CC(O)CN3C(=O)N(Cc4ccc(Cl)cc4Cl)C(=O)C3(C)C)CC2)c1.Cl (centres unmarked)"
number = 132.5

[[record]]
compound = "CC1(C)C(=O)N(Cc2ccc(Cl)cc2Cl)C(=O)N1CC(O)CN1CCN(c2ccccc2F)CC1 (centres unmarked)"
number = 137.8

[[record]]
compound = "CC1(C)C(=O)N(Cc2ccc(Cl)cc2Cl)C(=O)N1CC(O)CN1CCN(c2ccccc2C#N)CC1.Cl (centres unmarked)"
number = 128.5

[[record]]
compound = "CC1(C)C(=O)N(Cc2ccc(Cl)cc2Cl)C(=O)N1CC(O)CN1CCN(c2ccc(F)cc2)CC1 (centres unmarked)"
number = 129.2

[[record]]
compound = "Cc1ccc(N2CCN(CC(O)CN3C(=O)N(Cc4ccc(Cl)cc4Cl)C(=O)C3(C)C)CC2)cc1C.Cl (centres unmarked)"
number = 139.0

[[record]]
compound = "COc1ccccc1N1CCN(CCCN2C(=O)N(Cc3ccc(Cl)cc3Cl)C(=O)C2(C)C)CC1.Cl"
number = 133.3

